- Tgt: cloned human CCR8 receptor stably expressed in L1.2 cells (Homo sapiens, UniProt P51685)
- Construct: expressed in transfected cells
- Sequence (P51685 whole entry): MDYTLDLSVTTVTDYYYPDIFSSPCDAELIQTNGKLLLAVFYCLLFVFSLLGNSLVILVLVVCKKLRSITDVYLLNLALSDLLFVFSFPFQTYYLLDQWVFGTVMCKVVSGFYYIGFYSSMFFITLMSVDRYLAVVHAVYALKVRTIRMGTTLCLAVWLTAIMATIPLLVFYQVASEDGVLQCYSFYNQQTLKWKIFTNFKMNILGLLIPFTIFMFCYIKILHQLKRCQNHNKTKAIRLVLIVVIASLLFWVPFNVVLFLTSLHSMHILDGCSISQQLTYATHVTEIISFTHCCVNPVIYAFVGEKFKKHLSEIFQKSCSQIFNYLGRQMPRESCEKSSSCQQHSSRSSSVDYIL
- Assay Remarks: whole cell binding screen: inhibition of biotinylated human I309 binding to CCR8 (FMAT 8100 HTS)
- Measurement Parameters: L1.2/hCCR8 cells, biotinylated human I-309, 10 point concentration response starting at 10 μM; read-out: Ki of compounds to inhibit I-309 binding to CCR8
pKi: −log10 of the molar value.
Measured Attribute: pKi

Past entries and their recorded results:
Compound: Cc1ccccc1C(=O)Nc1ccc(S(=O)(=O)NC2CCN(c3ncccn3)CC2)c2ccccc12 [Compound C-57]
Assay Value: > 6.30
//
Compound: CCNC(=O)N1CCC(C)(NS(=O)(=O)c2ccc(NC(=O)c3ccccc3C)c3ccccc23)CC1 [Compound C-24]
Assay Value: > 6.30
//
Compound: O=C(Nc1cccc2c(S(=O)(=O)NC3CCCCC3)cccc12)c1ccccc1 [Compound H-5]
Assay Value: > 6.30
//
Compound: CCOC(=O)N1CCC(NS(=O)(=O)c2cccc3c(C(=O)Nc4cccnc4)cccc23)CC1 [Compound H-35]
Assay Value: > 6.00
//
Compound: Cc1ccccc1C(=O)Nc1cc(S(=O)(=O)NC2CCN(C(=O)C(C)C)CC2)cc2c1CCCC2 [Compound H-53]
Assay Value: > 4.52
//
Compound: CCCC(=O)N1CC[C@H](NS(=O)(=O)c2ccc(NC(=O)c3cccnc3C)c3ccccc23)[C@H](C)C1 (racemic) [Compound D-3]
Assay Value: > 6.30

Turning now to a further compound:
The reported cloned human CCR8 receptor stably expressed in L1.2 cells (Homo sapiens, UniProt P51685) pKi of Cc1ccccc1C(=O)Nc1ccc(S(=O)(=O)NC2CCCN(C(=O)N(C)C)C2)c2c1CCCC2 (racemic) [Compound E-30] is > 6.30
